The reported measurements were obtained from ChEMBL document CHEMBL1212772.

system: Escherichia coli; experiment: Antimicrobial activity against Escherichia coli OC 11732 expressing extended-spectrum beta-lactamase CTX-M-15 assessed as inhibition of growth by broth dilution method; format: functional
READOUT_TYPE: MIC

• C[C@@H](O)[C@H]1C(=O)N2C(C(=O)O)=C(S[C@@H]3CN[C@H](C(=O)N(C)C)C3)[C@H](C)[C@H]12 = 0.03 µg/mL
• C[C@@H](O)[C@H]1C(=O)N2C(C(=O)O)=C(SCCNC=N)C[C@H]12 [IMIPENEM ANHYDROUS] = 0.25 µg/mL
• CC(C)(O/N=C(\C(=O)N[C@@H]1C(=O)N2C(C(=O)[O-])=C(C[n+]3ccccc3)CS[C@H]12)c1csc(N)n1)C(=O)O = 32 µg/mL

Specify MIC for `C[C@@H](O)[C@H]1C(=O)N2C(C(=O)O)=C(S[C@@H]3CN[C@H](CNS(N)(=O)=O)C3)[C@H](C)[C@H]12` and stop.
0.06 µg/mL

----------
system: Klebsiella pneumoniae; assay: Antimicrobial activity against Klebsiella pneumoniae OC 4238 overexpressing beta-lactamase SHV-1 assessed as inhibition of growth by broth dilution method; type: functional
Can you tell me MIC for the items I'm about to list?
Give bare numbers, in µg/mL.

Check out these entries, answers already filled in.
- CC(C)(O/N=C(\C(=O)N[C@@H]1C(=O)N2C(C(=O)[O-])=C(C[n+]3ccccc3)CS[C@H]12)c1csc(N)n1)C(=O)O: 2
- C[C@@H](O)[C@H]1C(=O)N2C(C(=O)O)=C(S[C@@H]3CN[C@H](C(=O)N(C)C)C3)[C@H](C)[C@H]12: 0.03
- C[C@@H](O)[C@H]1C(=O)N2C(C(=O)O)=C(S[C@@H]3CN[C@H](CNS(N)(=O)=O)C3)[C@H](C)[C@H]12: 0.06

Input C[C@@H](O)[C@H]1C(=O)N2C(C(=O)O)=C(SCCNC=N)C[C@H]12 [IMIPENEM ANHYDROUS] , output reported MIC.
0.25

----------
test system: Enterobacter cloacae; experiment: Antimicrobial activity against Enterobacter cloacae OC 4080 overexpressing beta-lactamase AmpC assessed as inhibition of growth by broth dilution method; assay type: functional
READOUT_TYPE: MIC (µg/mL)
Give bare numbers, in µg/mL.

Study these solved cases before continuing.
• CC(C)(O/N=C(\C(=O)N[C@@H]1C(=O)N2C(C(=O)[O-])=C(C[n+]3ccccc3)CS[C@H]12)c1csc(N)n1)C(=O)O = 32
• C[C@@H](O)[C@H]1C(=O)N2C(C(=O)O)=C(S[C@@H]3CN[C@H](CNS(N)(=O)=O)C3)[C@H](C)[C@H]12 = 0.25
• C[C@@H](O)[C@H]1C(=O)N2C(C(=O)O)=C(SCCNC=N)C[C@H]12 [IMIPENEM ANHYDROUS] = 1

Could you now consider this next compound?
Recall and state the measured MIC for `C[C@@H](O)[C@H]1C(=O)N2C(C(=O)O)=C(S[C@@H]3CN[C@H](C(=O)N(C)C)C3)[C@H](C)[C@H]12` .
0.25

----------
Field: MIC. Provide a value for each of the molecules that follow.
system: Pseudomonas aeruginosa; assay: Antimicrobial activity against wild type Pseudomonas aeruginosa ATCC 27853 expressing beta-lactamase AmpC assessed as inhibition of growth by broth dilution method; type: functional
Answers are plain numbers, in µg/mL.

Sample records with MIC:
- C[C@@H](O)[C@H]1C(=O)N2C(C(=O)O)=C(S[C@@H]3CN[C@H](CNS(N)(=O)=O)C3)[C@H](C)[C@H]12: 0.5
- CC(C)(O/N=C(\C(=O)N[C@@H]1C(=O)N2C(C(=O)[O-])=C(C[n+]3ccccc3)CS[C@H]12)c1csc(N)n1)C(=O)O: 2
- C[C@@H](O)[C@H]1C(=O)N2C(C(=O)O)=C(S[C@@H]3CN[C@H](C(=O)N(C)C)C3)[C@H](C)[C@H]12: 0.5

Provide MIC value for the following molecule: C[C@@H](O)[C@H]1C(=O)N2C(C(=O)O)=C(SCCNC=N)C[C@H]12 [IMIPENEM ANHYDROUS]
2

----------
tested on: Pseudomonas aeruginosa; experiment: Antimicrobial activity against Pseudomonas aeruginosa OC 7052 expressing beta-lactamase VIM-2 and containing Carbapenemase assessed as inhibition of growth by broth dilution method; assay type: functional
For each entry below, report its MIC value.
One number for each entry, in mg/L.

Worked cases, answers included:
- CC(C)(O/N=C(\C(=O)N[C@@H]1C(=O)N2C(C(=O)[O-])=C(C[n+]3ccccc3)CS[C@H]12)c1csc(N)n1)C(=O)O [CEFTAZIDIME]: 64
- C[C@@H](O)[C@H]1C(=O)N2C(C(=O)O)=C(SCCNC=N)C[C@H]12 [IMIPENEM ANHYDROUS]: 64
- C[C@@H](O)[C@H]1C(=O)N2C(C(=O)O)=C(S[C@@H]3CN[C@H](C(=O)N(C)C)C3)[C@H](C)[C@H]12 [MEROPENEM]: 32

Give reported MIC value for C[C@@H](O)[C@H]1C(=O)N2C(C(=O)O)=C(S[C@@H]3CN[C@H](CNS(N)(=O)=O)C3)[C@H](C)[C@H]12 [DORIPENEM]
32

----------
Please go through the items and note down their MIC.
test system: Klebsiella pneumoniae; assay: Antimicrobial activity against wild type Klebsiella pneumoniae OC 15263 expressing beta-lactamase SHV-1 assessed as inhibition of growth by broth dilution method; format: functional
Answers are plain numbers, in µg/mL.

• CC(C)(O/N=C(\C(=O)N[C@@H]1C(=O)N2C(C(=O)[O-])=C(C[n+]3ccccc3)CS[C@H]12)c1csc(N)n1)C(=O)O = 0.12

Go through the items and report each one's MIC.
1. C[C@@H](O)[C@H]1C(=O)N2C(C(=O)O)=C(S[C@@H]3CN[C@H](CNS(N)(=O)=O)C3)[C@H](C)[C@H]12
2. C[C@@H](O)[C@H]1C(=O)N2C(C(=O)O)=C(SCCNC=N)C[C@H]12 [IMIPENEM ANHYDROUS]
3. C[C@@H](O)[C@H]1C(=O)N2C(C(=O)O)=C(S[C@@H]3CN[C@H](C(=O)N(C)C)C3)[C@H](C)[C@H]12

0.06
0.5
0.03

----------
system: Klebsiella pneumoniae; experiment: Antimicrobial activity against Klebsiella pneumoniae OC 4094 expressing extended-spectrum Beta-lactamase TEM-26 assessed as inhibition of growth by broth dilution method; format: functional
READOUT_TYPE: MIC

- CC(C)(O/N=C(\C(=O)N[C@@H]1C(=O)N2C(C(=O)[O-])=C(C[n+]3ccccc3)CS[C@H]12)c1csc(N)n1)C(=O)O: > 256 µg/mL
- C[C@@H](O)[C@H]1C(=O)N2C(C(=O)O)=C(S[C@@H]3CN[C@H](CNS(N)(=O)=O)C3)[C@H](C)[C@H]12: 0.12 µg/mL
- C[C@@H](O)[C@H]1C(=O)N2C(C(=O)O)=C(SCCNC=N)C[C@H]12 [IMIPENEM ANHYDROUS]: 0.5 µg/mL

Quickly give me recorded MIC for `C[C@@H](O)[C@H]1C(=O)N2C(C(=O)O)=C(S[C@@H]3CN[C@H](C(=O)N(C)C)C3)[C@H](C)[C@H]12`
0.06 µg/mL

----------
system: Serratia marcescens; test: Antimicrobial activity against wild type Serratia marcescens OC 7554 expressing beta-lactamase SME-3 and containing Carbapenemase assessed as inhibition of growth by broth dilution method; format: functional
READOUT_TYPE: MIC (µg/mL)
Numbers only, in µg/mL.

- C[C@@H](O)[C@H]1C(=O)N2C(C(=O)O)=C(S[C@@H]3CN[C@H](C(=O)N(C)C)C3)[C@H](C)[C@H]12 [MEROPENEM]: 128
- C[C@@H](O)[C@H]1C(=O)N2C(C(=O)O)=C(S[C@@H]3CN[C@H](CNS(N)(=O)=O)C3)[C@H](C)[C@H]12 [DORIPENEM]: 128

Supply MIC value. Item: CC(C)(O/N=C(\C(=O)N[C@@H]1C(=O)N2C(C(=O)[O-])=C(C[n+]3ccccc3)CS[C@H]12)c1csc(N)n1)C(=O)O [CEFTAZIDIME]
0.5
